# System: SK-MEL-28
# assay.remarks: NCI tumour cell line growth inhibition, 48 h
Activity calls are given as the source filed them. No stated cut-off is given here; in the data, active = GI50 up to about 1.1 µM and inactive = higher.
// classify into active, inactive

Asked: I'd appreciate the recorded outcome for CC(=O)OC1CC2CC(=O)CC1N2C (stereo not given) from this test.
Given back: inactive

Asked: I'd appreciate the recorded outcome for `C#CCn1c(=O)c2ccccc2n(CC#C)c1=O` from this test.
Given back: inactive

Asked: I'd appreciate the recorded outcome for `C[C@H](CCC1=NCCN1)[C@H]1CC[C@H]2[C@@H]3CC[C@@H]4C[C@H](O)CC[C@]4(C)[C@H]3C[C@H](O)[C@]12C` from this test.
Given back: inactive

Asked: I'd appreciate the recorded outcome for CCOC(=O)C1=C(C)NC(=S)NC1c1cccc(O)c1 (stereo not given) from this test.
Given back: inactive

Asked: I'd appreciate the recorded outcome for N=C1N(c2ccccc2)C(=O)C23CCCC2C13N1CCOCC1 (stereo not given) from this test.
Given back: inactive

Asked: I'd appreciate the recorded outcome for `Cc1ccc(/C=C/C(=O)C(C)C)cc1` from this test.
Given back: inactive

Asked: I'd appreciate the recorded outcome for `CC(=O)O[C@H]1C#C/C=C\C#CC[C@@H]2C(=O)N(C(=O)OC(C)(C)C)[C@@H]12` from this test.
Given back: inactive

Asked: I'd appreciate the recorded outcome for CC(=O)N(CCc1ccccc1)C(C)(C#N)c1ccccc1 (stereo not given) from this test.
Given back: inactive

Asked: I'd appreciate the recorded outcome for `Cc1ccc(C(=O)Nc2ccc(CP(=O)(O)O)cc2CP(=O)(O)O)cc1NC(=O)Nc1cc(C(=O)Nc2ccc(CP(=O)(O)O)cc2CP(=O)(O)O)ccc1C` from this test.
Given back: inactive

Asked: I'd appreciate the recorded outcome for Cc1cn(CCOCCOC(=O)NC(CCCNC(N)=O)C(=O)O)c(=O)[nH]c1=O (stereo not given) from this test.
Given back: inactive

Asked: I'd appreciate the recorded outcome for `Cc1cc(Br)cc(C)c1NC(=O)C(=O)CC(=O)c1sc(-n2nc(-c3ccccc3)cc2-c2ccccc2)nc1C` from this test.
Given back: inactive

Asked: I'd appreciate the recorded outcome for `Cc1cccc2cc3cccc(C(=O)NCCN(C)C)c3nc12` from this test.
Given back: active

Asked: I'd appreciate the recorded outcome for `O=C1CCCC2=C1CC1=C(CCCC1=O)N2c1ccc([N+](=O)[O-])cc1` from this test.
Given back: inactive

Asked: I'd appreciate the recorded outcome for O=C(O)C1=C(O)C(C(=O)O)C23CCCCCCCCCCC12C(C(=O)O)C(O)=C3C(=O)O (stereo not given) from this test.
Given back: inactive

Asked: I'd appreciate the recorded outcome for `NC(=S)N/N=C(\Cc1nc2ccc(Cl)cc2nc1O)C(=O)Nc1ccc(Cl)cc1` from this test.
Given back: inactive

Asked: I'd appreciate the recorded outcome for `CCOC(=O)c1nc2ccc(C(F)(F)F)cc2nc1Nc1cc(OC)c(OC)c(OC)c1` from this test.
Given back: inactive

Asked: I'd appreciate the recorded outcome for `CN(C)CCNC(=O)c1cccc(CO)c1[N+](=O)[O-]` from this test.
Given back: inactive

Asked: I'd appreciate the recorded outcome for `O=[N+]([O-])c1ccc(O)c(/C=N/NC(=S)N2CCCCC2)c1` from this test.
Given back: inactive

Asked: I'd appreciate the recorded outcome for O=C1OC(Cl)C(N=P(c2ccccc2)(c2ccccc2)c2ccccc2)=C1Cl (stereo not given) from this test.
Given back: inactive

Asked: I'd appreciate the recorded outcome for `NNC(=S)N/N=C/C(Cl)=C(\Cl)C(=O)O` from this test.
Given back: inactive

* * *

# Tested on: 786-0
# assay.remarks: NCI tumour cell line growth inhibition, 48 h
Activity calls are given as the source filed them. Cut-off read from the data, not from the text of the source: active = GI50 up to about 1.1 µM and inactive = higher.
assay.readout: GI50

Asked: Quote GI50 with test system 786-0 for `CC(=O)c1cccc(Nc2nc3ccccc3c3occc23)c1`
Given back: 16.7 µM (inactive)

Asked: Quote GI50 with test system 786-0 for `COC(=O)/C=C1/OC(c2ccccc2)=C(Cl)C1=O`
Given back: 18.3 µM (inactive)

Asked: Quote GI50 with test system 786-0 for CC1=C2C(=O)OCC23C=COC3(C)O1 (configuration not stated)
Given back: 35.6 µM (inactive)

Asked: Quote GI50 with test system 786-0 for `O=C1C(=O)N(C(=O)c2ccc(Cl)c(Cl)c2)c2ccccc21`
Given back: > 100 µM (inactive)

Asked: Quote GI50 with test system 786-0 for O=C1/C(=C/c2ccc(O)cc2)CCC1CNc1ccc(Cl)cc1 (configuration not stated)
Given back: 1.83 µM (inactive)

Asked: Quote GI50 with test system 786-0 for CC1CCC2CC1NC(=O)CCOCCC(=O)NC2(C)C (configuration not stated)
Given back: > 100 µM (inactive)

Asked: Quote GI50 with test system 786-0 for `CCn1c2ccccc2c2ccc3c(c21)C(=O)c1ccccc1C3=O`
Given back: > 100 µM (inactive)

Asked: Quote GI50 with test system 786-0 for `O=C1OC(=O)c2c1nc1ccccc1c2-c1ccccc1`
Given back: > 100 µM (inactive)

Asked: Quote GI50 with test system 786-0 for `NNC(=S)N/N=C/C(Cl)=C(\Cl)C(=O)O`
Given back: > 100 µM (inactive)

Asked: Quote GI50 with test system 786-0 for `CCOc1ccc(Nc2nc3c(s2)C(=O)c2ccccc2C3=O)cc1`
Given back: 14.2 µM (inactive)

Asked: Quote GI50 with test system 786-0 for O=C1OC(Cl)C(N=P(c2ccccc2)(c2ccccc2)c2ccccc2)=C1Cl (configuration not stated)
Given back: 80.4 µM (inactive)

Asked: Quote GI50 with test system 786-0 for `Nc1nnc2oc3ccc4ccccc4c3cc1-2`
Given back: 34 µM (inactive)

* * *

Answer each item with its documented GI50.
# Tested on: EKVX
# assay.remarks: NCI tumour cell line growth inhibition, 48 h
Active and inactive are the calls of the source. Cut-off read from the data, not from the text of the source: active = GI50 up to about 1.1 µM and inactive = higher.

Asked: Please give measured GI50 of the following entry: `Cc1nc2c(C)c3c([nH]c4ccc(Cl)cc43)c(C)c2c(O)c1C`
Given back: 22 µM (inactive)

Asked: Please give measured GI50 of the following entry: `NS(=O)(=O)c1nnc(NC(=O)/C=C/C(=O)O)s1`
Given back: > 100 µM (inactive)

Asked: Please give measured GI50 of the following entry: `CC(=O)O[C@H]1C#C/C=C\C#CC[C@@H]2C(=O)N(C(=O)OC(C)(C)C)[C@@H]12`
Given back: 85.7 µM (inactive)

Asked: Please give measured GI50 of the following entry: COc1ccc(N[C@H](C[S+]([O-])c2ccc(C)cc2)C(F)(F)C(F)(F)F)cc1 (stereo not given in full)
Given back: 65.2 µM (inactive)

Asked: Please give measured GI50 of the following entry: COc1ccc(N2C(=O)C3c4[nH]c5ccc(F)cc5c4C4CCC(C(C)(C)C)CC4C3C2=O)cc1 (stereo not given)
Given back: > 10 µM (inactive)

Asked: Please give measured GI50 of the following entry: `CCCCCCCCOC(=O)c1cc([N+](=O)[O-])c(Sc2[nH]cnc3ncnc2-3)c([N+](=O)[O-])c1`
Given back: 8.71 µM (inactive)

Asked: Please give measured GI50 of the following entry: Cc1ccc(S(=O)(=O)N/N=C2/CCC3(O)CC2(C)CCC2[C@H]3CC2(C)C)cc1 (stereo not given in full)
Given back: 31.7 µM (inactive)

Asked: Please give measured GI50 of the following entry: `CCOC(=O)c1cc2cc(CSc3ccccc3)ccc2oc1=O`
Given back: > 100 µM (inactive)

Asked: Please give measured GI50 of the following entry: `N#Cc1cnn2cc[nH]c12`
Given back: > 100 µM (inactive)

Asked: Please give measured GI50 of the following entry: CC(C)(C)N(Cc1ccoc1)C(=O)/C=C\[S+]([O-])c1ccccc1 (stereo not given)
Given back: 22.8 µM (inactive)

* * *

# Tested on: MOLT-4
# assay.remarks: NCI tumour cell line growth inhibition, 48 h
The source made the active and inactive calls. No stated cut-off is given here; in the data, active = GI50 up to about 1.1 µM and inactive = higher.
// classify into active, inactive

Asked: I'd appreciate the recorded outcome for `O=C1C(=O)N(C(=O)c2ccc(Cl)c(Cl)c2)c2ccccc21` from this test.
Given back: inactive

Asked: I'd appreciate the recorded outcome for `CC1(C)CC[C@]2(C)[C@@H](O)C[C@]3(C)C(=CC[C@@H]4[C@@]5(C)CC[C@H](O)C(C)(C)[C@@H]5CC[C@]43C)[C@@H]2C1` from this test.
Given back: inactive

Asked: I'd appreciate the recorded outcome for NCC(O)CNC(=O)c1ccc(-c2ccc(-c3ccc(C(=O)NCC(O)CN)cc3)o2)cc1 (centres undefined) from this test.
Given back: inactive

Asked: I'd appreciate the recorded outcome for `O=C1CCCC2=C1CC1=C(CCCC1=O)N2c1ccc([N+](=O)[O-])cc1` from this test.
Given back: inactive

Asked: I'd appreciate the recorded outcome for COc1cccc2c1C(=O)c1c(O)c3c(c(O)c1C2=O)C[C@@](O)(C(=O)CO)C[C@@H]3OC1CC(N(C)C)C(O)C(C)O1 (some centres undefined) from this test.
Given back: active

Asked: I'd appreciate the recorded outcome for `CCOC(=O)c1ccc(Nc2nc3ccc(C(F)(F)F)cc3nc2C(=O)OCC)cc1` from this test.
Given back: inactive

Asked: I'd appreciate the recorded outcome for CCCCCCC(C)CCCCCCCCCCC(=O)O (centres undefined) from this test.
Given back: inactive

Asked: I'd appreciate the recorded outcome for `CCn1c2ccccc2c2ccc3c(c21)C(=O)c1ccccc1C3=O` from this test.
Given back: inactive

Asked: I'd appreciate the recorded outcome for `CC(C)c1cccc(=O)c(O)c1` from this test.
Given back: active
